- target_desc: human A2A adenosine receptor (Homo sapiens)
- Construct: expressed in transfected cells; host or cells: HEK293 or CHO cells
- Sequence (P29274 whole entry): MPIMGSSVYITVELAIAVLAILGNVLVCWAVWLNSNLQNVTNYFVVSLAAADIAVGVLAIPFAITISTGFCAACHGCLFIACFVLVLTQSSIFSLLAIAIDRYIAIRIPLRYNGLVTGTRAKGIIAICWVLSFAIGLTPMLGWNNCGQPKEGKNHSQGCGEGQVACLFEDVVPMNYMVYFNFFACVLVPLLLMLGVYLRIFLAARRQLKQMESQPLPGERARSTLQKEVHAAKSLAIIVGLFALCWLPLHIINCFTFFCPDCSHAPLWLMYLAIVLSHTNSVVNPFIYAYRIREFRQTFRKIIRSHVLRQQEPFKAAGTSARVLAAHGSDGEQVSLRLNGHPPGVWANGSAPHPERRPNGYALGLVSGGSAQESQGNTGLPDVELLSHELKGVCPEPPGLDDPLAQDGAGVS
- experimental_details: A2A binding affinity, Method (B): scintillation proximity assay (SPA) with [3H]SCH58261
- measurement_parameters: membranes of HEK293 or CHO cells expressing the human receptor
Hi there, I'd appreciate the recorded IC50 for every entry that follows.
Give bare numbers, in nM.

Examples from the recorded data:
molecule | scale_unit | IC50
COc1cccc2c1nc(N)n1nc(CN(Cc3ccc(OC(C)C)nc3)CC3CC3)nc21 [Example 16.7] | nM | 13.5
COCCN(Cc1ccc(C(F)(F)F)cc1)Cc1nc2c3cccc(OC)c3nc(N)n2n1 [Example 15.15] | nM | 6.6
COc1cccc2c1nc(N)n1nc(CNCC3CC3)nc21 [Example 10.12] | nM | 27.3

Your task in this section: give IC50 for each listed record.
1. CCN(CC)Cc1nc2c3cccc(OC)c3nc(N)n2n1 [Example 5.3]
2. COc1cccc2c1nc(N)n1nc(CNC(=O)CCc3cccc(C(F)(F)F)c3)nc21 [Example 2.5]

24.4
25.8

Hi, could you look up IC50 for each item in my list?
1. COc1cccc2c1nc(N)n1nc(CNC(C)c3ncc(-c4ccc(F)cc4)o3)nc21 (single isomer, unassigned) [Example 10.15]
2. COc1cccc2c1nc(N)n1nc(CN(CC(C)O)CC(C)O)nc21 (centres unmarked) [Example 10.13]
3. COc1cccc2c1nc(N)n1nc(C[C@@H](C)NCc3oc(C)nc3C)nc21 [Example 24.3]

1: 44.3; 2: 32.2; 3: 11.1

---

Would you kindly list pIC50 for each of these molecules?
- target_desc: human A2B adenosine receptor (Homo sapiens)
- Construct: purchased Perkin Elmer ES-013-C; host or cells: HEK293 cells
- experimental_details: A2B binding affinity, radioligand filtration binding assay
- measurement_parameters: value printed with mark (B); membranes of HEK293 cells expressing human A2B
One number for each entry, as −log10 of the molar value.

line_notation | pIC50
COc1cc(F)cc2c1nc(N)n1nc(CNCc3ccc(C(C)(C)O)cc3)nc21 | 8.54

Consider the additional molecule presented here.
Per the reported human A2B adenosine receptor (Homo sapiens) data, COc1cccc2c1nc(N)n1nc(CNCc3cnn(C)c3)nc21 has pIC50 of 5.98

---

Assign pIC50 to each entry below.
- target_desc: human A2B adenosine receptor (Homo sapiens, UniProt P29275)
- Construct: purchased Perkin Elmer ES-013-C; host or cells: HEK293 cells
- Sequence (P29275 whole entry): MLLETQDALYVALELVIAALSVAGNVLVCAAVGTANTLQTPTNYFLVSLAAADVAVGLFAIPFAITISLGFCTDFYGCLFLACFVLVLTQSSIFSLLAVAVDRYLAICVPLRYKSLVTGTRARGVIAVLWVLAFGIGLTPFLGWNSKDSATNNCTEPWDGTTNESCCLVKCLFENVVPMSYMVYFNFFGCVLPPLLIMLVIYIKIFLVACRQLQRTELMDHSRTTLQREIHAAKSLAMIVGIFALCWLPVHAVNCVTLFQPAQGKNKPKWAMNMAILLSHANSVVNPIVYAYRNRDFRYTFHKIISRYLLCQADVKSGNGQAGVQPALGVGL
- experimental_details: A2B binding affinity, radioligand filtration binding assay
- measurement_parameters: value given with mark (A); membranes of HEK293 cells expressing human A2B
One number for each entry, as −log10 of the molar value.

Examples with their reported pIC50 follow.
compound | pIC50
COc1cc(F)cc2c1nc(N)n1nc(CNCc3ccc(S(N)(=O)=O)cc3)nc21 | 7.81
COc1cc(F)cc2c1nc(N)n1nc(CNCc3ccc(C(O)C(F)(F)F)cc3)nc21 (single isomer, unassigned) [Example 11.7B] | 7.83

Now turn to the next compound.
// COc1cc(F)cc2c1nc(N)n1nc(CNCc3ccc(C(C)(O)C(F)(F)F)cc3)nc21 (single isomer, unassigned) [Example 11.8A] : pIC50 value = 7.95
